Please respond with reported TGI for every item in the list.
system: TK-10 renal; assay: NCI tumour cell line growth inhibition, 48 h

Required: TGI, one value per molecule below.
1. Cc1c(NC(=O)c2cc(C(N)=O)nc3cc(F)ccc23)c(C(F)(F)F)nn1Cc1ccc(C#N)cc1
2. COc1cc2c(cc1OC)C(=O)/C(=C/c1ccccc1)CC2

1. > 53.6 µM
2. > 100 µM

----------
Please respond with reported TGI for every item in the list.
test system: MCF7 breast; assay: NCI tumour cell line growth inhibition, 48 h

Required: TGI, one value per compound below.
1. C[C@]12CCC3c4ccc(O)cc4CC[C@H]3C1CC(=O)N(CCN1CCCC1)C2=O (stereo not given in full)
2. COC(=O)C1=C(C)NC(C)=C(C(=O)OC)C1c1ccc(NO)cc1
3. N#CC(C#N)=C/C=C(\Sc1ccc(F)c(Cl)c1)c1ccc(Cl)cc1
4. CC(C)(C)c1ccc(O)c(C[N+](C)(C)C)c1

["> 10 µM", "19.2 µM", "26.7 µM", "> 100 µM"]

----------
test system: SNB-75 CNS; assay: NCI tumour cell line growth inhibition, 48 h
RECORDED ENDPOINT: TGI

Reference set (5 entries):
compound=O=c1c2ccccc2nc(/C=C(\O)c2ccccc2)n1-c1ccccc1Cl result="> 100 µM"
compound="C=C(C)[C@@H]1CC[C@]2(CNCCO)CC[C@]3(C)[C@H](CC[C@@H]4[C@@]5(C)CCC(N)[C@@](C)(CO)[C@@H]5CC[C@]43C)[C@@H]12 (some centres not stated)" result="3.1 µM"
compound=CCOC(=O)c1ccc2c(c1)c1c(C)c3ccncc3c(C)c1n2C result="1.95 µM"
compound=Cc1cc(OCc2n[nH]c(=S)n2/N=C/c2ccc(F)cc2)ccc1Cl result="69.2 µM"
compound=COc1nc(-c2cn(S(=O)(=O)c3ccc(C)cc3)c3ccc(Br)cc23)cc(C(F)(F)F)c1C#N result="49.4 µM"

Required: TGI, one value per compound below.
1. COc1ccc2c(c1)O[C@@H]1c3ccc(OC)cc3OC[C@H]21
2. CC(=O)Nc1cc(C(=O)Nc2cc(C(=O)Nc3cc(C(=O)Nc4cc(C(=O)Nc5cc(C(=O)NCCC(=O)NCCCN(C)C)n(C)c5)n(C)c4)n(C)c3)n(C)c2)n(C)c1

1: 51.4 µM; 2: > 100 µM

----------
tested on: HCC-2998 colon; assay: NCI tumour cell line growth inhibition, 48 h
Please respond with reported TGI for every item in the list.

Required: TGI, one value per compound below.
1. O=c1c2ccccc2nc(/C=C(\O)c2ccccc2)n1-c1ccccc1Cl
2. O=C1C=CC(=O)c2c(O)c(CO)c(CO)c(O)c21
3. CC[C@]12C=CCN3CC[C@]4(C(=C(C(=O)OC)C1)Nc1cc(OC)c(OC(C)=O)cc14)[C@@H]32
4. O=c1c(O)c(O)c1=O.[NH2-].[NH2-].[NH2-].[NH2-].[NH2-].[Ru+5]
5. COc1ccc(C2=C(c3cn(C)c4ccccc34)C(=O)NC2=O)cc1
6. COC(=O)c1c2c(c[n+]([O-])c1C)C(=O)C=C(NCc1ccccc1)C2=O
7. COc1cc2c(cc1OC)C(=O)/C(=C/c1ccccc1)CC2
8. C=C(C)/C=C/C(O)[C@](C)(O)[C@H]1[C@H](O)C[C@@]2(C)[C@@H]3CCc4c(cc(OC5OC(CO)C(O)C(O)C5O)c(O)c4C)C3(C)C(=O)C[C@]12C (stereo not given in full)

1: > 100 µM; 2: 4.78 µM; 3: 6.79 µM; 4: > 100 µM; 5: > 25 µM; 6: 0.492 µM; 7: 54.9 µM; 8: > 100 µM

Required: TGI, one value per compound below.
1. CN(C)CCNC(=O)c1ccc(Cl)c2c(Nc3ccc(S(=O)(=O)N=C(N)N)cc3)c3ccccc3nc12
2. COC(=O)CNC(=O)c1cc(C)cc2c1Oc1c(cc(C)cc1C(=O)NCC(=O)OC)S2

["21.3 µM", "> 100 µM"]

----------
system: OVCAR-3 ovarian; test: NCI tumour cell line growth inhibition, 48 h
RECORDED ENDPOINT: TGI

Reference set (4 entries):
compound=COC(=O)CNC(=O)c1cc(C)cc2c1Oc1c(cc(C)cc1C(=O)NCC(=O)OC)S2 recorded_endpoint=TGI result="> 100 µM"
compound=Nc1ccc2c(c1)Cc1cc(Cl)c(Cl)cc1-2 recorded_endpoint=TGI result="87.8 µM"
compound="CCN(C1=CC(=O)NC2CCCCN12)c1ccccc1 (stereo not drawn)" recorded_endpoint=TGI result="> 100 µM"
compound=S=C(Nc1c2c(nc3ccccc13)CCCC2)Nc1c2c(nc3ccccc13)CCCC2 recorded_endpoint=TGI result="> 100 µM"

Required: TGI, one value per compound below.
1. CC1=C(SCCC(=O)OCC(=O)NCCC[Te]c2ccccc2)C(=O)c2ccccc2C1=O
2. CCN1CCN(c2cc(C)nc(N(CCCNc3ccnc4cc(Cl)ccc34)Cc3cccs3)n2)CC1
3. O=C(O)/C=N/NC(=S)NC1CCCCC1
4. CCN1C/C(=C\c2cc(OC)c(OC)c(OC)c2)C2=NN(c3ccccc3)C(c3cc(OC)c(OC)c(OC)c3)C2C1 (stereo not drawn)

1. 4.81 µM
2. 6.03 µM
3. > 100 µM
4. > 25.1 µM

----------
Please respond with reported TGI for every item in the list.
tested on: RPMI-8226 leukemia; assay: NCI tumour cell line growth inhibition, 48 h

Reference set (4 entries):
compound_structure_string=CCOC(=O)C=C1CCC2(CC1)OCCO2 system_under_test="RPMI-8226 leukemia" result="> 100 µM"
compound_structure_string=Cc1cc(C)c(CNC(=O)c2cc(-c3ccc(CN4CCOCC4)cc3)cc3c2cnn3C2CCCC2)c(=O)[nH]1 system_under_test="RPMI-8226 leukemia" result="50.7 µM"
compound_structure_string=COC(=O)[C@@H](Nc1ccccc1)[C@@]1(C(=O)OC)SC12c1ccccc1-c1ccccc12 system_under_test="RPMI-8226 leukemia" result="> 100 µM"
compound_structure_string=Cn1cc(C2=C(Sc3ccccc3)C(=O)NC2=O)c2ccccc21 system_under_test="RPMI-8226 leukemia" result="> 25 µM"

Then this molecule:
Give the measured TGI of CN(C)c1ccc(-c2[nH]c(=O)c3ccccc3[n+]2C)cc1 . > 100 µM

----------
test system: M14 melanoma; experiment: NCI tumour cell line growth inhibition, 48 h
RECORDED ENDPOINT: TGI

Reference set (5 entries):
compound=CC(C)(C)c1ccc(O)c(C[N+](C)(C)C)c1 system_under_test="M14 melanoma" result="> 100 µM"
compound=COc1cc2c[n+]3ccc4cc(OC)c(OC)cc4c3cc2cc1O system_under_test="M14 melanoma" result="> 100 µM"
compound=CC1=C(C(=O)CC(=O)C(=O)Nc2cccc(Cl)c2C)Sc2ccccc2N1 system_under_test="M14 melanoma" result="> 100 µM"
compound="COc1ccc(C(OCC2OC(n3cnc4c(=O)n(Cc5ccccc5[N+](=O)[O-])nnc43)C(O)C2O)(c2ccccc2)c2ccc(OC)cc2)cc1 (stereo not drawn)" system_under_test="M14 melanoma" result="> 100 µM"
compound=Cc1cc2c(c(C(N)=O)c1C)-c1cccc(Cl)c1C2=O system_under_test="M14 melanoma" result="> 100 µM"

Required: TGI, one value per compound below.
1. COc1cc2c(cc1OC)C1C(O)C(OC)C(Br)C3(Br)CCN(C2)C13 (stereo not drawn)
2. COc1cc(OC)cc(Oc2nc3cc(N)cc(N)c3nc2-c2ccccc2)c1
3. O=S(=O)(O)c1ccc(N=Nc2ccc(N=Nc3c(O)ccc4cc(S(=O)(=O)O)ccc34)cc2)cc1

1. > 100 µM
2. 7.76 µM
3. > 100 µM

----------
Please respond with reported TGI for every item in the list.
system: NCI/ADR-RES ovarian; assay: NCI tumour cell line growth inhibition, 48 h

molecule=C=C(C)[C@@H]1CC[C@]2(COC(C)=O)CC[C@]3(C)[C@H](CC[C@@H]4[C@@]5(C)CC[C@H](OC(C)=O)C(C)(C)[C@@H]5CC[C@]43C)[C@@H]12 result="> 50 µM"

Required: TGI, one value per molecule below.
1. COc1cc(/C=N/NC(=O)c2ccc(NC(C)=O)cc2OC)ccc1O
2. C=CCN(C(=O)OC(C)(C)C)C1=CC2C(C)=CN(S(=O)(=O)c3ccccc3)C2C(OCc2ccccc2)=C1 (configuration not stated)
3. O=[N+]([O-])c1ccc(N=Nc2c(O)ccc3cc(S(=O)(=O)O)cc(S(=O)(=O)O)c23)cc1
4. CC(C)=CC(=O)OCC(=O)O[C@@H]1C[C@]2(C(C)C)O[C@@]1(C)[C@@H]1CC[C@@H](C)[C@H]1[C@@H]2OC(=O)/C=C/c1ccccc1
5. COC(=O)/C=C\n1ncc(=O)[nH]c1=O
6. NC(=O)NN=C1C[C@H]2CCCC[C@H]2C1

["> 100 µM", "> 100 µM", "> 100 µM", "> 85.5 µM", "> 100 µM", "> 100 µM"]

Required: TGI, one value per molecule below.
1. O=C1C=Cc2cscc21
2. COC(=O)NC(Nc1ccc(Cl)cc1Cl)(C(F)(F)F)C(F)(F)F
3. COc1ccc(C2=NN(C(=O)c3ccc(Cl)cc3)C(O)(c3cc(F)c(Cl)cc3Cl)C2)cc1OC (configuration not stated)
4. CC12OC(=O)[C@@]3(O)CCC4C(C[C@H]5O[C@]56CC=CC(=O)[C@]46C)C45OC[C@H]6C(=O)O[C@@H]1C[C@@]6(C)[C@H](C4=O)C23O5 (some centres not stated)
5. O=C(O)/C=N/NC(=S)NC1CCCCC1
6. COc1cccc2c1C(=O)c1c(O)c3c(c(O)c1C2=O)CC(O)(C(O)CO)CC3OC1CC2C(OC3COCC(C#N)N32)C(C)O1 (configuration not stated)

1. > 100 µM
2. > 100 µM
3. > 100 µM
4. > 100 µM
5. > 100 µM
6. < 0.01 µM

Required: TGI, one value per molecule below.
1. O=C1CNc2cc(N3CCN(c4ccccc4)CC3)ccc2N1
2. CC(NC(=O)C(CC(=O)OCc1ccccc1)NC(=O)OCc1ccccc1)c1ccccc1 (configuration not stated)
3. N#CCCC(CC#N)N1CCN(C(CC#N)CCC#N)CC1 (configuration not stated)
4. C[C@]12CCC3c4ccc(O)cc4CC[C@H]3C1CC(=O)N(CCN1CCCC1)C2=O (some centres not stated)
5. COC(=O)[C@@H](Nc1ccccc1)[C@@]1(C(=O)OC)SC12c1ccccc1-c1ccccc12

> 100 µM
> 100 µM
> 100 µM
> 10 µM
> 100 µM

Required: TGI, one value per molecule below.
1. CCOC1CN(C)C(=Nc2cccc3ccccc23)S1 (configuration not stated)
2. CC[C@H]1C[C@@H](O)[C@@H]2[C@H](O)[C@H](O)CN2C1
3. O=c1c2cc(I)ccc2nc(-c2cccs2)n1-c1ccc(S(=O)(=O)Nc2nccs2)cc1
4. COc1ccc(-c2[nH]c(=O)n(C3OC(CO)C(O)C(O)C3O)c(=O)c2C#N)cc1 (configuration not stated)

> 10 µM
> 100 µM
> 100 µM
> 100 µM
